# study system: human recombinant adrenergic α2B receptor (Homo sapiens, UniProt P18089)
# Construct: expressed in transfected cells; host or cells: CHO-K1
# Sequence (P18089 1-450): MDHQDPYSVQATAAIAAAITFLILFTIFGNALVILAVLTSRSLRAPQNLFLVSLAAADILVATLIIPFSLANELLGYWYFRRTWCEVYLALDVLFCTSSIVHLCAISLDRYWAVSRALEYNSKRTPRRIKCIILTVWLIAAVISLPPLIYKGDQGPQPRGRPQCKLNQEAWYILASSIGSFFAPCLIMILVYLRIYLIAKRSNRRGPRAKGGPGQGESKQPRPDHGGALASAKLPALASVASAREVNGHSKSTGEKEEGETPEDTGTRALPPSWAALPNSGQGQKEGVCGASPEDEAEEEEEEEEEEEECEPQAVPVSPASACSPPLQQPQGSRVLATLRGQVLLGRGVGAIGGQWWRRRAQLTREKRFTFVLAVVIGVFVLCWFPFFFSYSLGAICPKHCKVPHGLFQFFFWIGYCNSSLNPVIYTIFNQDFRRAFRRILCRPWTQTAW
# assay notes: Radioligand binding, adrenergic α2B ([3H]Rauwolscine)
# condition details: 0.1 μM compound; read-out: Percentage inhibition of ligand binding, Adrenergic α2B
# if value of inhibition at 0.1 µM reaches 90%, tag Fulfilled; if it stays below, tag Not fulfilled

{"compound": "Cc1ccc2c(c1)c1c(n2C2=C(c3sccc3C)CCC2)CCN(C)C1", "cat": "Not fulfilled"}
{"compound": "CSc1ccc(/C(C)=C/n2c3c(c4cc(Cl)ccc42)CN(C)CC3)cc1", "cat": "Fulfilled"}
{"compound": "Cc1ccc2c(c1)c1c(n2C2=C(c3ccnn3C)CCC2)CCN(C)C1", "cat": "Not fulfilled"}
{"compound": "C/C(=C/n1c2c(c3cc(C)ccc31)CN(C)CC2)c1cc2ccccc2s1", "cat": "Fulfilled"}

Exam item: Hi, just wondering whether C/C(=C\n1c2c(c3cc(Cl)ccc31)CN(C)C(C)C2)c1ccc(C)nc1 (stereo not shown) shows inhibition at 0.1 µM of 90% or higher.
Marked response: Fulfilled

Exam item: Check the entry `C/C(=C/n1c2c(c3cc(C)ccc31)CN(C)CC2)c1cccc2ccccc12` : does inhibition at 0.1 µM equal or exceed 90%?
Marked response: Not fulfilled

Exam item: Item `Cc1ccc2c(c1)c1c(n2CCc2nc(-c3ccc(Cl)cc3)cs2)CCN(C)C1` with inhibition at 0.1 µM of 90% or above?
Marked response: Fulfilled

Exam item: Check if inhibition at 0.1 µM >= 90% (inclusive). Item: `C/C(=C\n1c2c(c3cc(C)ccc31)CN(C)CC2(C)C)c1ccc(C)nc1`
Marked response: Not fulfilled

Exam item: Identify whether the reported inhibition at 0.1 µM of the following compound is 90% or greater: `Cc1ccc2c(c1)c1c(n2C2=C(c3cnc(N(C)C)nc3)CCC2)CCN(C)C1`
Marked response: Not fulfilled

Exam item: // inclusive: inhibition at 0.1 µM at least 90%? input: `Cc1ccc(CCn2c3c(c4cc(C)ccc42)CN(C)CC3)nc1`
Marked response: Not fulfilled

Exam item: Decide: inhibition at 0.1 µM of Cc1ccc2c(c1)c1c(n2CC(C)c2ccncc2)CCN(C)C1 (stereo not shown) >= 90%?
Marked response: Fulfilled

Exam item: // inclusive: inhibition at 0.1 µM at least 90%? input: `C/C(=C\n1c2c(c3cc(C)ccc31)CN(C)CC2)c1ccc2cnccc2c1`
Marked response: Fulfilled

Exam item: hey, is inhibition at 0.1 µM for this one >= 90%? `C/C(=C\n1c2c(c3cc(C)cc(C)c31)CN(C)CC2)c1cccc(S(C)(=O)=O)c1`
Marked response: Not fulfilled

Exam item: Determine whether measured inhibition at 0.1 µM meets or exceeds 90% for `COc1cc(/C(C)=C/n2c3c(c4cc(C)ccc42)CN(C)CC3)ccn1`
Marked response: Not fulfilled

Exam item: Is it the case that `C/C(=C\n1c2c(c3cc(C)cnc31)CN(C)CC2)c1ccc(F)cc1` has inhibition at 0.1 µM reaching or exceeding 90%?
Marked response: Fulfilled
